# Experiment summary: Cmax in C57BL/6 mouse plasma at 13.4 mg/kg, ip
# Assay type: ADME, organism-based
# Parameters: dose 13.4 mg/kg, route intraperitoneal
Reported metric: Cmax (ng/mL)
Only the number, expressed in ng/mL, is required.

Prompt line: Name the reported Cmax value associated with the compound `N#Cc1cccc(COc2ccc3c(c2)CN2C(=O)CN(C4CCCC4)C(=O)[C@H]2C3)c1`
Response line: 3500

###

# Experiment summary: Half life in C57BL/6 mouse plasma at 13.4 mg/kg, ip
# Type: ADME, organism-based
Reported metric: half-life (h)
Only the number, expressed in h, is required.

Prompt line: Name the reported half-life value associated with the molecule `N#Cc1cccc(COc2ccc3c(c2)CN2C(=O)CN(C4CCCC4)C(=O)[C@H]2C3)c1`
Response line: 4.95
